List of IC50 values.
TARGET OF ASSAY: (UniProt Q0SC92)
METHOD: biochemical
Type: biochemical, Rhodococcus sp. (strain RHA1), isolate ro03041
MEASUREMENT CONTEXT: read-out: pI50 (converted)
Express it in µM; write the number only.

Completed entries (count: 3):
{"COMPOUND": "Cc1ccc(C(=O)COc2c(C(=O)c3ccc(Cl)c(C)c3Cl)c(C)nn2C)cc1 [Benzofenap]", "IC50 / µM": 3.98}
{"COMPOUND": "COCCOCc1nc(C(F)(F)F)ccc1C(=O)C1=C(O)C2CCC(C2)C1=O (stereo not shown) [Bicyclopyrone]", "IC50 / µM": 126}
{"COMPOUND": "CS(=O)(=O)c1ccc(C(=O)C2C(=O)CCCC2=O)c(Cl)c1COCC1CCCO1 (stereo not shown) [Tefuryltrione]", "IC50 / µM": 6.31}

From here, focus on the item given below.
Entry under review: CS(=O)(=O)c1cc(C(F)(F)F)ccc1C(=O)C(C#N)C(=O)C1CC1 (stereo not shown) [Diketonitrile] . Reported IC50?
15.8
